# Protocol: NCI Yeast Anticancer Drug Screen. Data for the rad50 strain (AID 155);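 note: 0% = growth of vehicle-only cultures of the same strain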
# Condition set: S. cerevisiae rad50 strain growth inhibition; at 50.0 µM; active compounds read high
The panel holds about 79,000 compounds, 15% with a hit somewhere; the sample as a whole holds those more often.
Measurement label: growth inhibition (%)
Answers are plain numbers, in %.

INSERT INTO assay_data (molecule, measurement_label, endpoint_value) VALUES
  ('O=Cc1ccc2c(c1)C(=O)c1ccccc1C2=O', 'growth inhibition', 77.6),
  ('COC(=O)C1=C(C(=O)OC)C(C(=O)OC)C(C(=O)OC)C(C(=O)OC)(C(=O)OC)C(C(=O)OC)=C1C(=O)OC (configuration not stated)', 'growth inhibition', 77.9);

// for each molecule in input: emit growth inhibition
1. CCCCc1nnc(NS(=O)(=O)c2ccc(C)cc2)s1
2. CN(C)c1ccc2c(SCC(=O)OCC(=O)[C@@]3(O)CC[C@H]4[C@@H]5CCC6=CC(=O)C=C[C@]6(C)[C@H]5C(=O)C[C@@]43C)c3ccc(N(C)C)cc3nc2c1
3. CCOC(=O)[C@H]1Nc2ccc(OC)cc2C2c3ccccc3CC21 (some centres not stated)
4. O=C1C(Br)=C(c2ccccc2)O/C1=C/C(=O)c1ccc(Br)cc1

Result:
72
60.2
70
24.2

// for each molecule in input: emit growth inhibition
1. COc1cc2cc3c4cc(OC)c(OC)cc4cc[n+]3c(C)c2cc1OC
2. CN(C)CCNc1ccc2ncnc3c2c1C(=O)c1ccccc1-3
3. O=C(c1ccc([N+](=O)[O-])cc1)C1N=NCC1c1ccccc1 (configuration not stated)
4. CC(=O)OCC(C)Cc1cc2c(cc1Br)OCO2 (configuration not stated)

Result:
51.4
76
31
31.6

// for each molecule in input: emit growth inhibition
1. CCN(CC)CCNc1ccc2ncn3c4cc(OC)c(OC)c(=O)c4c(O)c1c23
2. CCOC(=O)c1ccc(NC(=O)O/N=C(/Cl)C(C)C)cc1
3. S=c1[nH]c2cc3ccccc3cc2[nH]1
4. N#CC1=C(N)N(/N=C/c2ccccc2)C(c2ccccc2)C1(C#N)C#N (configuration not stated)
5. CCC(C)NC1=NCC(C)S1 (configuration not stated)
6. O=C(O)CCCC1CCCc2c1ccc1ccccc21 (configuration not stated)
7. O=C1C=C(Cl)C(=O)C(c2ccc(Cl)cc2)=C1

Result:
65.5
55.4
71.2
39.9
64.1
88
91.5

// for each molecule in input: emit growth inhibition
1. CCOC1Oc2ccccc2-c2nc(N)ncc21 (configuration not stated)
2. Oc1ccc(-c2nc(-c3ccc(F)cc3)c(-c3ccc4ccccc4n3)[nH]2)cc1
3. CC(C)(C)CC(C)(C)c1cc(O)c(O)c(CN2CCCCC2)c1

Result:
1: 88.3; 2: 90.5; 3: 71.8

// for each molecule in input: emit growth inhibition
1. O=c1[nH]c(-c2ccccc2)nc2c1sc1nc3ccccc3n12
2. CN(CCN(C)Cc1ccccc1)Cc1ccccc1

Result:
[13.4, 24.5]

---

# Protocol: NCI Yeast Anticancer Drug Screen. Data for the rad18 strain (AID 177)
# Condition set: S. cerevisiae rad18 mutant growth inhibition; at 3.7 µM; active compounds read high
# Description: Growth inhibition of yeast strains with defined genetic alterations is measured as a screen for potential anti-cancer activity. Selected strains with alterations in DNA damage repair or cell cycle control were exposed to compounds and growth inhibition was measured relative to vehicle treated controls. The strain used in this assay is rad18
This is part of a sample that, as a whole, favours compounds with a hit. Of some 79,000 tested, about 15% had one in any assay.
Measurement label: growth inhibition (%)
Give bare numbers, in %.

// for each compound in input: emit growth inhibition
1. O=[N+]([O-])c1cccc2nc3ccccc3c(NCCCn3ccnc3[N+](=O)[O-])c12
2. O=C(O)Cc1cc(F)ccc1C(=O)O
3. O=C1c2cccnc2C(=O)C2C3C=CC(C3)C12 (configuration not stated)
4. CCN(CC)CCOc1cc(C)c2cc(Cc3ccccc3)ccc2n1
5. CC(=O)Nc1ccc2c(c1)-c1ccccc1C2=O
6. S=C1SCN(C2CCCCC2)CN1C1CCCCC1
7. CSc1nnc(SC)nn1

Result:
1: 94; 2: 1; 3: 76; 4: 15; 5: -5; 6: -38; 7: 11

---

# Protocol: NCI Yeast Anticancer Drug Screen. Data for the sgs1 strain (AID 173);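 note: 0% = growth of vehicle-only control cultures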
# Condition set: S. cerevisiae sgs1 mutant, at 100.0 µM
This is part of a sample that, as a whole, favours compounds with a hit. Of some 79,000 tested, about 15% had one in any assay. The source made the active and inactive calls. Rule as the data show it: active = growth inhibition above about 70%; inactive = the rest.
// classify into active, inactive

Example results:
INSERT INTO assay_data (compound, qualitative_label) VALUES
  ('CC12C(=O)OC(=O)C(c3ccccc31)c1ccccc12', 'inactive'),
  ('CCN(CC)Cc1cc(Nc2c3ccccc3nc3c2[nH]c2ccccc23)cc(CN(CC)CC)c1O', 'inactive'),
  ('COc1ccc(C2C3=C(COC3=O)OC(C)(C)Oc3cc4c(cc32)OCO4)cc1OC (stereo unspecified)', 'active'),
  ('O=C(O)c1ccc(N2C(=O)C=CC2=O)cc1', 'inactive'),
  ('Clc1ccc2c(c1)N(CCCN1CCCC13CCCCC3)c1ccccc1S2', 'inactive'),
  ('CC[N+](CC)(CC)c1ccccc1', 'inactive');

Q: Hi, do you know how COc1cc(C2SCC(=O)N2c2ccc(-c3ccc(-n4c(-c5ccccc5)nc5ccccc5c4=O)cc3)cc2)ccc1O (stereo unspecified) came out in this test?
Result: inactive

Q: Hi, do you know how OCc1ccccc1Cc1ccccc1 came out in this test?
Result: inactive

Q: Hi, do you know how CCCC(=O)Oc1c(C)cc([N+](=O)[O-])cc1[N+](=O)[O-] came out in this test?
Result: active

Q: Hi, do you know how S=c1[nH]c2cc3ccccc3cc2[nH]1 came out in this test?
Result: inactive

Q: Hi, do you know how Nc1nc2ccc(NCc3ccc(C(=O)NC(CCC(=O)O)C(=O)O)cc3)cc2c(=O)[nH]1 (stereo unspecified) came out in this test?
Result: inactive

---

# Protocol: NCI Yeast Anticancer Drug Screen. Data for the rad50 strain (AID 155);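 note: 0% = growth of vehicle-only cultures of the same strain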
# Condition set: S. cerevisiae rad50 strain growth inhibition; at 5.0 µM (retest, dose inferred, filed as 0.5); active compounds read high
# Description: Growth inhibition of yeast strains with defined genetic alterations is measured as a screen for potential anti-cancer activity. Selected strains with alterations in DNA damage repair or cell cycle control were exposed to compounds and growth inhibition was measured relative to vehicle treated controls. The strain used in this assay is rad50
About 79,000 compounds went through this panel and 15% of them were active in at least one assay; those are over-represented in the sample as a whole.
Give measured growth inhibition for each item. Keep answers brief.
One number for each entry, in %.

// for each compound in input: emit growth inhibition
1. COC(C(O)CO)C(O)C(O)C(=O)NNc1ccccc1 (stereo unspecified)
2. CSc1nc(C)c(CCOC(C)=O)c(N=P(c2ccccc2)(c2ccccc2)c2ccccc2)n1
3. Nc1ccc(F)cc1S

Result:
1. 9
2. 16
3. 16

---

Give measured growth inhibition for each item. Keep answers brief.
# Protocol: NCI Yeast Anticancer Drug Screen. Data for the rad50 strain (AID 155);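 note: 0% = growth of vehicle-only cultures of the same strain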
# Condition set: S. cerevisiae rad50 strain growth inhibition; at 50.0 µM; active compounds read high
This is part of a sample that, as a whole, favours compounds with a hit. Of some 79,000 tested, about 15% had one in any assay.
Numbers only, in %.

Below are worked cases with known answers.
INSERT INTO measurements (molecule, measurement_label, endpoint_value) VALUES
  ('Cc1cc2cc3cc(C)c(N)cc3nc2cc1N', 'growth inhibition', 81.8),
  ('CC(C)CN(CC(C)C)C(=O)c1ccc(Cl)c(Cl)c1', 'growth inhibition', 94.7),
  ('C=C(C(=C)n1nnc(C(=O)OC)c1C(=O)OC)n1nnc(C(=O)OC)c1C(=O)OC', 'growth inhibition', 27.1);

// for each molecule in input: emit growth inhibition
1. CC(C)(C)N=C(NO)c1ccccc1
2. CCOc1c(N=Nc2ccccc2OC)c(C)nn1C(=S)S
3. O=C(Oc1ccc2c(c1)CN(Cc1ccccc1)CO2)c1ccccc1
4. CCOc1ccccc1N=Cc1c2ccccc2cc2ccccc12

Result:
70.2
98.5
79.2
88.8

---

# Protocol: NCI Yeast Anticancer Drug Screen. Data for the rad52 strain (AID 147);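 note: 0% = growth of vehicle-treated control cultures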
# Condition set: S. cerevisiae rad52 mutant growth inhibition; at 33.0 µM; active compounds read high
About 79,000 compounds went through this panel and 15% of them were active in at least one assay; those are over-represented in the sample as a whole.
growth inhibition of 70% or higher: Yes. Under 70%: No.

Example results:
INSERT INTO measurements (compound, qualitative_label) VALUES
  ('Clc1ccc(NCNC2Nc3ccccc3N2)cc1Cl', 'Yes'),
  ('COc1cc(C2SCC(=O)N2c2ccc(-c3ccc(-n4c(-c5ccccc5)nc5ccccc5c4=O)cc3)cc2)ccc1O (stereo not given)', 'No'),
  ('CNC(=O)OCc1c(COC(=O)NC)c(-c2ccc(Cl)c(Cl)c2)n2c1SCC2', 'No');

Continue with the next compound.
Q: Is growth inhibition at least 70%? Consider COc1cccc2c1C(=O)c1c(O)c3c(c(O)c1C2=O)CC(O)(C(O)CO)CC3OC1CC(N2CCOCC2)C(O)C(C)O1 (stereo not given)
Result: Yes
